Target: SMARCA4 (Homo sapiens, UniProt P51532)
Construct: SMARCA4-HiBiT knock-in Hela monoclonal cell (CS3023226); host or cells: HeLa monoclonal cells with heterozygous HiBiT knock-in at the endogenous SMARCA4 locus
Sequence (P51532 whole entry): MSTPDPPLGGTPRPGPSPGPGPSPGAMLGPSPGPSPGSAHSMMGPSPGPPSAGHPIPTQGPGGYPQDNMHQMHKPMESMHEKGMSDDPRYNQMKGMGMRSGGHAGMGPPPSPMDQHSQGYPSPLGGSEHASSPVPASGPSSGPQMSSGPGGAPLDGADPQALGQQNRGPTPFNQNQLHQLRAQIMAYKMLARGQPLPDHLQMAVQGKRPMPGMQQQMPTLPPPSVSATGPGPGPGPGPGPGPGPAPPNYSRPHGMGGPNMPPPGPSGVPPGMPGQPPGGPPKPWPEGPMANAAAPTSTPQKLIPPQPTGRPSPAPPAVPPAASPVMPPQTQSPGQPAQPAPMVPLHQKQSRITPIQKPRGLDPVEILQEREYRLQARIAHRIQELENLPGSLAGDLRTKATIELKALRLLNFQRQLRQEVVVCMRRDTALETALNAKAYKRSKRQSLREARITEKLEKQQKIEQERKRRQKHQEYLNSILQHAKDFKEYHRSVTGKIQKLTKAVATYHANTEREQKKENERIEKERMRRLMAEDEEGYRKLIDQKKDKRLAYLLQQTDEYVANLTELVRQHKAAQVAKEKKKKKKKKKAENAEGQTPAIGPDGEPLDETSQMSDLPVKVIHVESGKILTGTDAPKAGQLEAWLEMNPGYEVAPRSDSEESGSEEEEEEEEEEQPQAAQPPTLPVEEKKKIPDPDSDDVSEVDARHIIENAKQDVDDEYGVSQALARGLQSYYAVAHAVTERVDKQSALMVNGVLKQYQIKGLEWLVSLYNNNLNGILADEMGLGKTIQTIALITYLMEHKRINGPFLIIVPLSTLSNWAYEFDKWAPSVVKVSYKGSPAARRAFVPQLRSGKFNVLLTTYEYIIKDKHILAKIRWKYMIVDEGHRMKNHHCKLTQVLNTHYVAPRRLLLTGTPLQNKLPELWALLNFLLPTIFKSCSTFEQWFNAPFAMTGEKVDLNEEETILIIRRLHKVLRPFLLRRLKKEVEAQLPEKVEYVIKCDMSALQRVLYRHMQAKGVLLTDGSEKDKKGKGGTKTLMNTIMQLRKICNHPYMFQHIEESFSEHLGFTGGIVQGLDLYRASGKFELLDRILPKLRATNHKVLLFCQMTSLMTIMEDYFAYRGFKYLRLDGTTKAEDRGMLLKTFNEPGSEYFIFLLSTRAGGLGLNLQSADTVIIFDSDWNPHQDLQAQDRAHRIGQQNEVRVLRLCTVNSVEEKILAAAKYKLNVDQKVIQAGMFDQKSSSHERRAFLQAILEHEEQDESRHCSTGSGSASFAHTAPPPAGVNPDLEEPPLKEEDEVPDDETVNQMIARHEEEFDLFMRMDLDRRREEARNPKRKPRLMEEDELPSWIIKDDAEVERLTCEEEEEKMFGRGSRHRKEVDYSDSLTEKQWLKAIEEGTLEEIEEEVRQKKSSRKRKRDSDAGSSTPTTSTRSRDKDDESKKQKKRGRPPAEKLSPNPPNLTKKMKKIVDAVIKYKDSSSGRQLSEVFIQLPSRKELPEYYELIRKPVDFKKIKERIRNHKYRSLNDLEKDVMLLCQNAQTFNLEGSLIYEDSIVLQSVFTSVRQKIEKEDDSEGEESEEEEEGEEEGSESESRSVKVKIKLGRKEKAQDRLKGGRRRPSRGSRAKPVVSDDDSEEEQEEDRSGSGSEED
Experiment: SMARCA4 HiBiT degradation assay in HeLa cells
Assay type: cell-based
Settings: 18 hours, highest concentration 10 μM
Let's look at some compounds and their measured Dmax.

compound	Dmax
CCc1nc(CN2CCN(c3ccc4c(c3)C(=O)N([C@H]3CCC(=O)NC3=O)C4)CC2)cnc1O[C@H]1CN2c3cc(-c4cccc(F)c4O)nnc3NC[C@@]2(CF)C1 [Example 67]	< 50%
CC[C@@]12CNc3nnc(-c4cccc(C)c4O)cc3N1C[C@H](Oc1cnc(CN3CCC(c4ccc5c(c4)C(=O)N([C@H]4CCC(=O)NC4=O)C5)CC3)c(C)c1C)C2 [Example 95]	< 50%
CC[C@@]12CNc3nnc(-c4cccc(F)c4O)cc3N1C[C@H](Oc1ncc(CN3CCC(c4ccc5c(c4)C(=O)N([C@H]4CCC(=O)NC4=O)C5)CC3)c(C)n1)C2 [Example 105]	< 50%
CC[C@]12CNc3nnc(-c4cccc(C)c4O)cc3N1C[C@H](Oc1cc(C)c(CN3CCC(c4ccc5c(c4)C(=O)N([C@H]4CCC(=O)NC4=O)C5)CC3)cn1)C2 [Example 98]	> 75%
Cc1nc(O[C@@H]2C[C@@H]3CNc4nnc(-c5cc(F)cc(F)c5O)cc4N3C2)ccc1CN1CCN(c2ccc3c(c2)C(=O)N([C@H]2CCC(=O)NC2=O)C3)CC1 [Example 30]	> 75%

----------
Biological target: SMARCA4 (Homo sapiens, UniProt P51532)
Construct: SMARCA4-HiBiT knock-in Hela monoclonal cell (CS3023226); host or cells: HeLa monoclonal cells with heterozygous HiBiT knock-in at the endogenous SMARCA4 locus
Experiment: SMARCA4 HiBiT degradation assay in HeLa cells
Assay type: cell-based
Details: 18 hours, highest concentration 10 μM
readout: Dmax

compound	readout	result
Cc1nc(O[C@H]2CN3c4cc(-c5cccc(F)c5O)nnc4NC[C@@]3(C)C2)nc(C)c1CN1CCC(c2ccc3c(c2)C(=O)N([C@H]2CCC(=O)NC2=O)C3)CC1	Dmax	< 50%
Cc1cc(O[C@@H]2C[C@H]3CNc4nnc(-c5cccc(F)c5O)cc4N3C2)ccc1CN1CCN(c2ccc3c(c2)C(=O)N(C2CCC(=O)NC2=O)C3)CC1 (some centres unmarked)	Dmax	> 75%
Cc1cc(O[C@@H]2C[C@@H]3CNc4nnc(-c5cc(F)cc(F)c5O)cc4N3C2)c(C)cc1CN1CCN(c2ccc3c(c2)C(=O)N(C2CCC(=O)NC2=O)C3)CC1 (some centres unmarked)	Dmax	50 to 75%
CN(c1ccc(CN2CCN(c3ccc4c(c3)C(=O)N(C3CCC(=O)NC3=O)C4)CC2)cn1)[C@@H]1C[C@@H]2CNc3nnc(-c4cccc(F)c4O)cc3N2C1 (some centres unmarked)	Dmax	< 50%
Cc1nc(O[C@H]2CN3c4cc(-c5cccc(F)c5O)nnc4NC[C@]3(C(F)F)C2)c(C)nc1CN1CCN(c2ccc3c(c2)C(=O)N([C@H]2CCC(=O)NC2=O)C3)CC1	Dmax	< 50%

----------
Biological target: SMARCA4 (Homo sapiens, UniProt P51532)
Construct: SMARCA4-HiBiT knock-in Hela monoclonal cell (CS3023226); host or cells: HeLa monoclonal cells with heterozygous HiBiT knock-in at the endogenous SMARCA4 locus
Test: SMARCA4 HiBiT degradation assay in HeLa cells
Format: cell-based
Conditions: 18 hours, highest concentration 10 μM
readout: DC50

molecule	result
Cc1cc(O[C@@H]2C[C@@H]3CNc4nnc(-c5cc(F)cc(Cl)c5O)cc4N3C2)ccc1CN1CCN(c2ccc3c(c2)C(=O)N(C2CCC(=O)NC2=O)C3)CC1 (some centres unmarked)	< 0.1 µM
Cc1cc(O[C@@H]2C[C@@H]3CNc4nnc(-c5cccc(C)c5O)cc4N3C2)ccc1CN1CCN(c2ccc3c(c2)C(=O)N(C2CCC(=O)NC2=O)C3)CC1 (some centres unmarked)	> 1 µM
CC[C@]12CNc3nnc(-c4cccc(F)c4O)cc3N1C[C@H](Oc1cnc(CN3CCN(c4ccc5c(c4)CN([C@H]4CCC(=O)NC4=O)C5=O)CC3)c(C(F)(F)F)c1)C2	< 0.1 µM
CC[C@@]12CNc3nnc(-c4cccc(F)c4O)cc3N1C[C@H](Oc1cc(C)c(CN3CCN(c4ccc5c(c4)C(=O)N([C@H]4CCC(=O)NC4=O)C5)CC3)cn1)C2	< 0.1 µM
O=C1CC[C@H](N2Cc3ccc(N4CCN(Cc5ccc(O[C@H]6CN7c8cc(-c9cccc(F)c9O)nnc8NC[C@]7(C(F)F)C6)cn5)CC4)cc3C2=O)C(=O)N1	0.1 to 1 µM

----------
Let's look at some compounds and their measured DC50.
Biological target: SMARCA4 (Homo sapiens, UniProt P51532)
Construct: SMARCA4-HiBiT knock-in Hela monoclonal cell (CS3023226); host or cells: HeLa monoclonal cells with heterozygous HiBiT knock-in at the endogenous SMARCA4 locus
Test: SMARCA4 HiBiT degradation assay in HeLa cells
Assay type: cell-based
Settings: 18 hours, highest concentration 10 μM
readout: DC50

compound	result
COc1cc(CN2CCN(c3ccc4c(c3)C(=O)N(C3CCC(=O)NC3=O)C4)CC2)cnc1O[C@H]1CN2c3cc(-c4cccc(F)c4O)nnc3NC[C@]2(C(F)F)C1 (some centres unmarked) [Example 53]	< 100 nM
Cc1cc(O[C@@H]2C[C@@H]3CNc4nnc(-c5cc(F)cc(F)c5O)cc4N3C2)c(C)cc1CN1CCN(c2ccc3c(c2)C(=O)N(C2CCC(=O)NC2=O)C3)CC1 (some centres unmarked) [Example 9]	< 100 nM
Cc1cc(CN2CCN(c3ccc4c(c3)C(=O)N([C@H]3CCC(=O)NC3=O)C4)CC2)c(C)nc1O[C@H]1CN2c3cc(-c4cccc(F)c4O)nnc3NC[C@@]2(C(F)F)C1 [Example 87]	100 to 1000 nM
Cc1nc(CN2CCC(c3ccc4c(c3)C(=O)N([C@H]3CCC(=O)NC3=O)C4)CC2)cnc1O[C@H]1CN2c3cc(-c4cccc(F)c4O)nnc3NC[C@@]2(CF)C1 [Example 65]	100 to 1000 nM
O=C1CCC(N2Cc3ccc(N4CCN(Cc5ccc(O[C@@H]6C[C@@H]7CNc8nnc(-c9cc(F)cc(F)c9O)cc8N7C6)c(F)c5)CC4)cc3C2=O)C(=O)N1 (some centres unmarked) [Example 4]	< 100 nM

----------
Let's look at some compounds and their measured DC50.
Target: SMARCA2 (Homo sapiens, UniProt P51531)
Construct: SMARCA2-HiBiT knock-in Hela monoclonal cell (CS302366); host or cells: HeLa monoclonal cells with heterozygous HiBiT knock-in at the endogenous SMARCA2 locus
Sequence (P51531 whole entry): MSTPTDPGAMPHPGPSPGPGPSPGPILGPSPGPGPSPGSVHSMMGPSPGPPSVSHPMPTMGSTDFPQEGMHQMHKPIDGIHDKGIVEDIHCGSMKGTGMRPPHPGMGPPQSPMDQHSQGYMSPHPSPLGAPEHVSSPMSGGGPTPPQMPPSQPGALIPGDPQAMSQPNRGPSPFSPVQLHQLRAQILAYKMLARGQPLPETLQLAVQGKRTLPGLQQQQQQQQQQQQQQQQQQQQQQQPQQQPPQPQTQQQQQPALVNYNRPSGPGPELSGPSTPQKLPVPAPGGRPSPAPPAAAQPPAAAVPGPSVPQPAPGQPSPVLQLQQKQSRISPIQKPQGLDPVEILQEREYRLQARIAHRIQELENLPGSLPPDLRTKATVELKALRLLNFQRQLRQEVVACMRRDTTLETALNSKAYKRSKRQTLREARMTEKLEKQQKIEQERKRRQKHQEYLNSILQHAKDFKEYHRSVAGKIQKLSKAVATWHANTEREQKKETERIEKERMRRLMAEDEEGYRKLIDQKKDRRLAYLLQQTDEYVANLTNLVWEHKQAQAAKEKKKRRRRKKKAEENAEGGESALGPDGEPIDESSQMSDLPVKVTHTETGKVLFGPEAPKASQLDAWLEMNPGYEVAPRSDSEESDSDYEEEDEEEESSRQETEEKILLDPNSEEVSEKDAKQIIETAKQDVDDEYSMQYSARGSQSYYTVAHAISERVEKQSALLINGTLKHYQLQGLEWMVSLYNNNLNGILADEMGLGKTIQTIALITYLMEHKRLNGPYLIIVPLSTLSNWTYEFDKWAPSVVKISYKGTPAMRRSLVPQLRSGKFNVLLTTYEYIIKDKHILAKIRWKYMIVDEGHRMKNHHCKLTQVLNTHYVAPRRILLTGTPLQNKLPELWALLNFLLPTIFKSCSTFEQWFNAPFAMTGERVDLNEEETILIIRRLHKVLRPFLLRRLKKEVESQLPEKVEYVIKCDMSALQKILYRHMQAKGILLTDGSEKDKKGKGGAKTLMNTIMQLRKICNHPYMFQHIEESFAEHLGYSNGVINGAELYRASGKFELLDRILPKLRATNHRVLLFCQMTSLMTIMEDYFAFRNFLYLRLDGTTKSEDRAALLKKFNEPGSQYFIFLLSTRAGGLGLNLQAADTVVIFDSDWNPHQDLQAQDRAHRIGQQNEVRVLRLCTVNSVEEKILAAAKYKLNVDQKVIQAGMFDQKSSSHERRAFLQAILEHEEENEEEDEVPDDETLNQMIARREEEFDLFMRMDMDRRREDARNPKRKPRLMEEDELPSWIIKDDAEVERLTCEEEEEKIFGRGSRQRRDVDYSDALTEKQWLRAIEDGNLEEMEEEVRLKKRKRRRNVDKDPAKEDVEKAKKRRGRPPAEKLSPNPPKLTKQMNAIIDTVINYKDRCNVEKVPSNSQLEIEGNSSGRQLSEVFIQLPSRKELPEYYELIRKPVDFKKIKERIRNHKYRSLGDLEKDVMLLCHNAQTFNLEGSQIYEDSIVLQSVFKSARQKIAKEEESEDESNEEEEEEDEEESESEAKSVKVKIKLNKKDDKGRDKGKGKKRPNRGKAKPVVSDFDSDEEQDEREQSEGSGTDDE
Experiment: SMARCA2 HiBiT degradation assay in HeLa cells
Assay type: cell-based
Settings: 18 hours, highest concentration 10 μM
readout: DC50

compound	result
CC[C@@]12CNc3nnc(-c4cccc(F)c4O)cc3N1C[C@H](Oc1ncc(CN3CCN(c4ccc5c(c4)C(=O)N(C4CCC(=O)NC4=O)C5)CC3)c(C)c1F)C2 (some centres unmarked) [Example 61]	< 100 nM
O=C1CCC(N2Cc3ccc(N4CCN(Cc5ccc(O[C@@H]6C[C@@H]7CNc8nnc(-c9cc(F)cc(F)c9O)cc8N7C6)cc5C(F)(F)F)CC4)cc3C2=O)C(=O)N1 (some centres unmarked) [Example 15]	< 100 nM
CC[C@]12CNc3nnc(-c4cccc(C)c4O)cc3N1C[C@H](Oc1cnc(CN3CCC(c4ccc5c(c4)C(=O)N([C@H]4CCC(=O)NC4=O)C5)CC3)c(C)c1)C2 [Example 97]	< 100 nM
CC[C@]12CNc3nnc(-c4cccc(F)c4O)cc3N1C[C@H](Oc1cnc(CN3CCC(c4ccc5c(c4)C(=O)N([C@H]4CCC(=O)NC4=O)C5)CC3)c(C)c1)C2 [Example 104]	< 100 nM
Cc1cc(O[C@@H]2C[C@@H]3CNc4nnc(-c5cc(F)cc(F)c5O)cc4N3C2)cc(C)c1CN1CCN(c2ccc3c(c2)C(=O)N(C2CCC(=O)NC2=O)C3)CC1 (some centres unmarked) [Example 17]	< 100 nM
Cc1c(O[C@H]2CN3c4cc(-c5cccc(F)c5O)nnc4NC[C@]3(C(F)F)C2)cnc(CN2CCN(c3ccc4c(c3)C(=O)N([C@H]3CCC(=O)NC3=O)C4)CC2)c1C [Example 46]	< 100 nM
Cc1nc(CN2CCN(c3ccc4c(c3)C(=O)N([C@H]3CCC(=O)NC3=O)C4)CC2)cnc1O[C@H]1CN2c3cc(-c4cccc(F)c4O)nnc3NC[C@@]2(CF)C1 [Example 64]	< 100 nM
CC[C@]12CNc3nnc(-c4cccc(C)c4O)cc3N1C[C@H](Oc1nc(C)c(CN3CCC(c4ccc5c(c4)C(=O)N([C@H]4CCC(=O)NC4=O)C5)CC3)c(C)n1)C2 [Example 96]	< 100 nM
COc1cc(O[C@@H]2C[C@@H]3CNc4nnc(-c5cc(F)cc(F)c5O)cc4N3C2)ccc1CN1CCN(c2ccc3c(c2)C(=O)N(C2CCC(=O)NC2=O)C3)CC1 (some centres unmarked) [Example 12]	< 100 nM
Cc1nc(O[C@H]2CN3c4cc(-c5cccc(F)c5O)nnc4NC[C@@]3(C)C2)nc(C)c1CN1CCN(c2ccc3c(c2)C(=O)N([C@H]2CCC(=O)NC2=O)C3)CC1 [Example 75]	< 100 nM
CC[C@@]12CNc3nnc(-c4cccc(F)c4O)cc3N1C[C@H](Oc1cnc(CN3CCN(c4ccc5c(c4)C(=O)N([C@H]4CCC(=O)NC4=O)C5)CC3)c(C)n1)C2 [Example 57]	< 100 nM
